Data origin: patent US20250034269A1

Reported values of NFκB luc, 14.64 ng/ml, with x linker for individual entries
# tgt: human LTBR on cells (human, UniProt P36941 31-435)
# experiment_notes: cell-based or functional assay

# binder, NFκB luc, 14.64 ng/ml, with x linker
records = [
    ("P1AE9452 (antibody, human IgG1, kappa, L234A L235A, V domains shown, human IgG1 PG LALA; from transgenic rabbit immunization; also called LTBR (9452)) VH: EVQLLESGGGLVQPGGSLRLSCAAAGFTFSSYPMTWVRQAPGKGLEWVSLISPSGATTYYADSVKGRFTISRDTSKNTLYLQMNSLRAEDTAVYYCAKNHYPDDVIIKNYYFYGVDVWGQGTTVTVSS VL: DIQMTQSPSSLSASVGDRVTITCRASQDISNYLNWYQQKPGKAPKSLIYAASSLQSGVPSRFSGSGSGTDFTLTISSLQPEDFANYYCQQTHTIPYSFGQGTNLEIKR", "23100 RLU"),
    ("P1AF0080 (antibody, human IgG1, kappa, L234A L235A, V domains shown, human IgG1 PG LALA; from transgenic rabbit immunization; also called LTBR (0080)) VH: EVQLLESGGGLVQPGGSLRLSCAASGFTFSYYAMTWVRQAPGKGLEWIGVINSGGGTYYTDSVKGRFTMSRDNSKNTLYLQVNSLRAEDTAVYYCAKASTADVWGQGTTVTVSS VL: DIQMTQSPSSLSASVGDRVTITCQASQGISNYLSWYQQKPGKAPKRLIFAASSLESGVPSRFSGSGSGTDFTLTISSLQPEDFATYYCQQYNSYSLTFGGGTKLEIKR", "30000 RLU"),
    ("P1AF0064 (antibody, human IgG1, kappa, L234A L235A, V domains shown, human IgG1 PG LALA constant regions; V domains from rat immunization; also called LTBR (0064)) VH: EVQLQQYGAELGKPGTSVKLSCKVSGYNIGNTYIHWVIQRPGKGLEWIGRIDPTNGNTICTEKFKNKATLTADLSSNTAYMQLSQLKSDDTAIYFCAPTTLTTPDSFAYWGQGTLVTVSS VL: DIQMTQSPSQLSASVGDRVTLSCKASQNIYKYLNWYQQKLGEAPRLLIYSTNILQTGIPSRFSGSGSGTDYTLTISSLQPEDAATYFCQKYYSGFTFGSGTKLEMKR", "43300 RLU"),
    ("P1AE9459 (antibody, human IgG1, kappa, L234A L235A, V domains shown, human IgG1 PG LALA; from transgenic rabbit immunization) VH: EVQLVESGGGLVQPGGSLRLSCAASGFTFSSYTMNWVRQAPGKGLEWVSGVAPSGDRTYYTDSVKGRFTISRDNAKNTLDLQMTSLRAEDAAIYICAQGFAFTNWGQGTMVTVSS VL: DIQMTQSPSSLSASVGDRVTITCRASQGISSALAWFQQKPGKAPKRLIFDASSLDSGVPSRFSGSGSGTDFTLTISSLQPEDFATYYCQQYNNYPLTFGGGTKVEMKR", "30500 RLU"),
    ("P1AE9450 (antibody, human IgG1, kappa, L234A L235A, V domains shown, human IgG1 PG LALA; from transgenic rabbit immunization; also called LTBR (9450)) VH: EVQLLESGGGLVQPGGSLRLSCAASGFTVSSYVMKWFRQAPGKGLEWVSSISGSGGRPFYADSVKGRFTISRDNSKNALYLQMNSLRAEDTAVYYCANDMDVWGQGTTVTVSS VL: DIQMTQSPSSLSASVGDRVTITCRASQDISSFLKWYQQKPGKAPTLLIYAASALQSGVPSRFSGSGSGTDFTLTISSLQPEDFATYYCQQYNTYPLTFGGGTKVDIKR", "24600 RLU"),
    ("P1AE1873 (CBE11) (antibody, human IgG1, kappa, L234A L235A, V domains shown) VH: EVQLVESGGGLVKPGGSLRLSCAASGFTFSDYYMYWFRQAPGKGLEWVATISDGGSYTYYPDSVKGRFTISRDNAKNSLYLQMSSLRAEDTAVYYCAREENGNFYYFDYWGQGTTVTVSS VL: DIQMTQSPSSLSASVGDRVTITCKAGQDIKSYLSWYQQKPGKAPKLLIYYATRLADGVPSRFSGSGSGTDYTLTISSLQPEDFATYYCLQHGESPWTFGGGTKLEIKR", "56600 RLU"),
    ("P1AE9457 (antibody, human IgG1, kappa, L234A L235A, V domains shown, human IgG1 PG LALA; from transgenic rabbit immunization; also called LTBR (9457)) VH: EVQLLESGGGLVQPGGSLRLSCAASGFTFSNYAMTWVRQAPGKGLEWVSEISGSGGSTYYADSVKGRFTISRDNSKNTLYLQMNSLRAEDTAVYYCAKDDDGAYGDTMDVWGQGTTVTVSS VL: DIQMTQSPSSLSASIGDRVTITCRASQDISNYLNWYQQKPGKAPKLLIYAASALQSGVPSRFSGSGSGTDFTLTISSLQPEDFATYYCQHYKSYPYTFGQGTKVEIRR", "17400 RLU"),
    ("P1AF0079 (antibody, human IgG1, kappa, L234A L235A, V domains shown, human IgG1 PG LALA; from transgenic rabbit immunization; also called LTBR (0079)) VH: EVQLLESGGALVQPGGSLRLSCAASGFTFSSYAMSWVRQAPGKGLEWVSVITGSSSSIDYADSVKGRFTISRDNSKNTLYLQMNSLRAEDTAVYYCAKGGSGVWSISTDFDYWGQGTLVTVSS VL: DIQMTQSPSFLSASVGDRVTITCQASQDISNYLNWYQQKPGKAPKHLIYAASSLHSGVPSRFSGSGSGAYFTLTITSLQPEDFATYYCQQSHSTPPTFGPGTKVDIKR", "12500 RLU"),
]
